- test.summary: In vivo pharmacokinetic study in rats, plasma (IV and PO)
- Design: species or system Sprague-Dawley rats
- condition.context: male, Sprague-Dawley, plasma; rat, IV, dose IV = 5 mg/kg (Compound XIV: IV = 15)
parameter: AUC
Please answer using a numeric value trailed by its unit.

C=C[C@]12OC(=O)N(CCCCn3cnc(-c4ccc(OC)nc4)c3)[C@@H]1[C@@H](C)C(=O)[C@H](C)C[C@](C)(OC)[C@H](OC1O[C@H](C)C[C@H](N(C)C)[C@H]1O)[C@@H](C)C(=O)[C@@H](C)C(=O)O[C@@H]2CC (some centres unmarked) ... 2600 ng·h/mL

Here's the next entry for you.
Incoming: Would you mind telling me what AUC value was observed for C=C[C@]12OC(=O)N(CCCCn3cnc(-c4ccc(C)nc4)c3)[C@@H]1[C@@H](C)C(=O)[C@H](C)C[C@](C)(OC)[C@H](OC1O[C@H](C)C[C@H](N(C)C)[C@H]1O)[C@@H](C)C(=O)[C@@H](C)C(=O)O[C@@H]2CC (some centres unmarked) ?
Outgoing: 2100 ng·h/mL

* * *

- Test system: Staphylococcus aureus Stau_29213
- test.summary: MIC, broth microdilution (NCCLS)
- Format: cell-based
- condition.context: strain ID A; broth microdilution; in µg/mL (unit assumed)
parameter: MIC, strain ID A

CC[C@H]1OC(=O)[C@H](C)C(=O)[C@H](C)[C@@H](OC2O[C@H](C)C[C@H](N(C)C)[C@H]2O)[C@@](C)(OC)C[C@@H](C)C(=O)[C@H](C)[C@@H]2[C@@H]1OC(=O)N2CCCCn1cnc(-c2ccc(Cl)nc2)c1 (some centres unmarked) ... 0.2

Incoming: Would you mind telling me what MIC, strain ID A value was observed for C#C[C@]12OC(=O)N(CCCCn3cnc(-c4ccc(OC)nc4)c3)[C@@H]1[C@@H](C)C(=O)[C@H](C)C[C@](C)(OC)[C@H](OC1O[C@H](C)C[C@H](N(C)C)[C@H]1O)[C@@H](C)C(=O)[C@@H](C)C(=O)O[C@@H]2CC (some centres unmarked) ?
Outgoing: 0.2

* * *

- System: Staphylococcus aureus Stau_29213
- test.summary: MIC, broth microdilution (NCCLS)
- Format: cell-based
- condition.context: strain ID A; broth microdilution; in µg/mL (unit assumed)
Please respond with reported MIC, strain ID A for every item in the list.
Numbers only.

// solved cases for MIC, strain ID A follow
C=C[C@]12OC(=O)N(CCCCn3cnc(-c4cccnc4Cl)c3)[C@@H]1[C@@H](C)C(=O)[C@H](C)C[C@](C)(OC)[C@H](OC1O[C@H](C)C[C@H](N(C)C)[C@H]1O)[C@@H](C)C(=O)[C@@H](C)C(=O)O[C@@H]2CC (some centres unmarked) [XXXVI] ... 0.2
C=C[C@]12OC(=O)N(CCCCn3cnc(-c4cnccc4Cl)c3)[C@@H]1[C@@H](C)C(=O)[C@H](C)C[C@](C)(OC)[C@H](OC1O[C@H](C)C[C@H](N(C)C)[C@H]1O)[C@@H](C)C(=O)[C@@H](C)C(=O)O[C@@H]2CC (some centres unmarked) [XXX] ... 0.2
C=C[C@]12OC(=O)N(CCCCn3cnc(-c4cnc(Cl)c(C)c4)c3)[C@@H]1[C@@H](C)C(=O)[C@H](C)C[C@](C)(OC)[C@H](OC1O[C@H](C)C[C@H](N(C)C)[C@H]1O)[C@@H](C)C(=O)[C@@H](C)C(=O)O[C@@H]2CC (some centres unmarked) [XXXVIII] ... 0.1
C#C[C@]12OC(=O)N(CCCCn3cnc(-c4ccc(Cl)nc4)c3)[C@@H]1[C@@H](C)C(=O)[C@H](C)C[C@](C)(OC)[C@H](OC1O[C@H](C)C[C@H](N(C)C)[C@H]1O)[C@@H](C)C(=O)[C@@H](C)C(=O)O[C@@H]2CC (some centres unmarked) [XXXIV] ... 0.1

Would you be so kind as to report MIC, strain ID A for each listed record?
1. C=C[C@]12OC(=O)N(CCCCn3cnc(-c4cnccc4OC)c3)[C@@H]1[C@@H](C)C(=O)[C@H](C)C[C@](C)(OC)[C@H](OC1O[C@H](C)C[C@H](N(C)C)[C@H]1O)[C@@H](C)C(=O)[C@@H](C)C(=O)O[C@@H]2CC (some centres unmarked) [XXXV]
2. C=C[C@]12OC(=O)N(CCCCn3cnc(-c4ccc(Cl)nc4)c3C)[C@@H]1[C@@H](C)C(=O)[C@H](C)C[C@](C)(OC)[C@H](OC1O[C@H](C)C[C@H](N(C)C)[C@H]1O)[C@@H](C)C(=O)[C@@H](C)C(=O)O[C@@H]2CC (some centres unmarked) [XXXVII]
3. C=C[C@]12OC(=O)N(CCCCn3cc(-c4ccc(Cl)nc4)nc3C)[C@@H]1[C@@H](C)C(=O)[C@H](C)C[C@](C)(OC)[C@H](OC1O[C@H](C)C[C@H](N(C)C)[C@H]1O)[C@@H](C)C(=O)[C@@H](C)C(=O)O[C@@H]2CC (some centres unmarked) [XXIX]

Outgoing:
0.2
0.2
0.2

Cited source for all entries: patent US7332476B2
